Values from PubChem BioAssay AID623870

# experimental_target: Transforming acidic coiled-coil-containing protein 3 (Homo sapiens) (UniProt Q9Y6A5)
# experiment_notes: inhibitors of ARNT PAS-B binding to TACC3 – biochemical, AlphaScreen, single concentration, primary screen (AID 623870);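 also: 0% = complete ARNT plus TACC3 wells and 100% = ARNT alone without TACC3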
# condition_context: AlphaScreen His-ARNT PAS-B/GST-TACC3 binding, luminescence; at 9.99 µM; stronger effect = higher value; TACC3 fragment carries E629A point mutation
Among all 390,000 compounds or so, about 2,600 (0.67%) were called active. The sample as a whole holds a higher share of actives than the screen did.
measure: inhibition (%)

chemical_string=CC(=O)N(C)C[C@H]1Oc2cc(-c3ccc(C)cc3)ccc2S(=O)(=O)N([C@@H](C)CO)C[C@@H]1C measure=inhibition u=% experimental_result=-9.76
chemical_string=C[C@@H]1CCCCO[C@H](CN(C)C(=O)Nc2cccc3ccccc23)[C@H](C)CN([C@@H](C)CO)C(=O)c2cc(NC(=O)CCCN(C)C)ccc2O1 measure=inhibition u=% experimental_result=14.2
chemical_string=CCCNC(=O)C[C@H]1CC[C@H]2[C@@H](COC[C@@H](O)CN2C(=O)Nc2ccc(Cl)c(Cl)c2)O1 measure=inhibition u=% experimental_result=-0.599
chemical_string=NC(=O)C1CCN(C(=O)COc2cccc3cccnc23)CC1 measure=inhibition u=% experimental_result=-5.01
chemical_string=Cc1ccc(S(=O)(=O)Nc2ccc3c(c2)CC(=O)N([C@@H](C)CO)C[C@@H](C)[C@@H](CN(C)S(=O)(=O)c2ccccc2)O3)cc1 measure=inhibition u=% experimental_result=-1.52
chemical_string=CO[C@@H]1CC[C@@H]2CCOc3ccc(C#N)cc3C(=O)N(C)C[C@H](c3ccccc3)CC(=O)N(C)C[C@H]1O2 measure=inhibition u=% experimental_result=-7.48
chemical_string=C[C@H](CO)N1C[C@H](C)[C@H](CN(C)Cc2ccncc2)Oc2ncc(C#CCC3CCCCC3)cc2C1=O measure=inhibition u=% experimental_result=-1.21
chemical_string=C[C@H](CO)N1C[C@H](C)[C@@H](CN(C)Cc2ccc(Cl)c(Cl)c2)Oc2c(NC(=O)Nc3ccccc3)cccc2C1=O measure=inhibition u=% experimental_result=6.91
